Catalogue of pEC50 readings, one per entry.
Target: Human TREM2 (Homo sapiens, UniProt Q9NZC2)
Sequence (Q9NZC2 19-230): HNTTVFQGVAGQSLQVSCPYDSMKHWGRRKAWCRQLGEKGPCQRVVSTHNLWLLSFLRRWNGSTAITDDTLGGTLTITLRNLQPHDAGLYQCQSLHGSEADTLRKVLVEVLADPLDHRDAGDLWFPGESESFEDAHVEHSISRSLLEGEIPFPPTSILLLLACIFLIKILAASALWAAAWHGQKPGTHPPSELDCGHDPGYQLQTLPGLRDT
Sequence (O43914 22-113 partner): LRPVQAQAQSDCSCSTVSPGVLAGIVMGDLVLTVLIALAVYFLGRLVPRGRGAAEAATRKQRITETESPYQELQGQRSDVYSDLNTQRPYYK
Experiment: Human TREM2 activity by cellular phosphorylation of Syk (AlphaLISA SureFire Ultra p-SYK) in HEK293/DAP12+TREM2 stable cell line
Conditions: phospho-Syk AlphaScreen signal, HEK293/DAP12+TREM2 cells, 30 min incubation; concentration giving 50% of maximal response
pEC50: −log10 of the molar value.

See these solved cases before continuing.
1. C[C@H]1CN(c2cc3c(=O)n(C)c(C(F)(F)F)nc3c(-c3ccc(C#N)cc3F)n2)C[C@@H](c2cnn(C3CC3)c2)O1 (single isomer, unassigned) [Example 13B] :: 8.00 to 9.00
2. Cn1cc([C@@H]2CN(c3cc4c(=O)n(C)c(C(F)(F)F)nc4c(-c4ccc(C#N)cc4F)n3)CC(F)(F)O2)cn1 (single isomer, unassigned) [Example 14B] :: 7.00 to 8.00
3. Cn1cc([C@H]2CN(c3cc4c(=O)n(C)c(C(F)(F)F)nc4c(-c4ccc(C#N)cc4F)n3)CC(F)(F)O2)cn1 (single isomer, unassigned) [Example 14A] :: 8.00 to 9.00
4. C[C@@H]1CN(c2nc(-c3ccc(C#N)cc3F)c3nc(C(F)(F)F)n(C)c(=O)c3n2)C[C@H](c2cnn(C)c2)O1 (single isomer, unassigned) :: 8.00 to 9.00

Please find the next molecule below.
Note to self: pEC50 recorded for COc1cc([C@@H]2CN(c3nc(-c4ccc(C#N)cc4F)c4nc(C(F)(F)F)n(C)c(=O)c4n3)C[C@H](C)O2)ccn1 (single isomer, unassigned) was > 9.00

* * *

Catalogue of EC50 readings, one per entry.
Molecular target: Human TREM2 (Homo sapiens)
Test: Human TREM2 activity by cellular phosphorylation of Syk (AlphaLISA SureFire Ultra p-SYK) in HEK293/DAP12+TREM2 stable cell line
Conditions: phospho-Syk AlphaScreen signal, HEK293/DAP12+TREM2 cells, 30 min incubation; concentration giving 50% of maximal response

See these solved cases before continuing.
1. COc1cc([C@H]2CN(c3nc(-c4ccc(C#N)cc4F)c4nc(C(F)(F)F)n(C)c(=O)c4n3)CCO2)ccn1 (single isomer, unassigned) [Example 8B] :: < 1 nM
2. C[C@H]1CN(c2nc(-c3ccc(C#N)cc3F)c3nc(C(F)(F)F)n(C)c(=O)c3n2)C[C@@H](c2cnn(C)c2)O1 (single isomer, unassigned) [Example 6B] :: 1 to 10 nM
3. Cn1cc([C@H]2CN(c3nc(-c4ccc(C#N)cc4)c4nc(C(F)(F)F)n(C)c(=O)c4n3)CCO2)cn1 [Example 3] :: 1 to 10 nM

Note to self: EC50 recorded for C[C@@H]1CN(c2nc(-c3ccc(C#N)cc3)c3nc(C(F)(F)F)n(C)c(=O)c3n2)C[C@H](c2cnn(C3CC3)c2)O1 (single isomer, unassigned) [Example 11A] was < 1 nM

Note to self: EC50 recorded for C[C@@H]1CN(c2nc(-c3ccc(C#N)cc3F)c3nc(C(F)(F)F)n(C)c(=O)c3n2)C[C@H](c2cnn(C3CC3)c2)O1 (single isomer, unassigned) [Example 5A] was < 1 nM

* * *

Target: Human TREM2 (Homo sapiens, UniProt Q9NZC2)
Construct: expressed in transfected cells
Assay: Human TREM2 activity by cellular phosphorylation of Syk (AlphaLISA SureFire Ultra p-SYK) in HEK293/DAP12+TREM2 stable cell line
Format: cell-based
Conditions: maximal response relative to the maximal response of the reference agonist (8-(4-chloro-2-fluorophenyl)-2,3-dimethyl-6-[(2S)-2-(1-methyl-1H-pyrazol-4-yl)morpholin-4-yl]-3H,4H-[1,3]diazino[5,4-d]pyrimidin-4-one); HEK293/DAP12+TREM2 cells
Catalogue of Emax readings, one per entry.

See these solved cases before continuing.
1. COc1cc([C@H]2CN(c3nc(-c4ccc(C#N)cc4F)c4nc(C(F)(F)F)n(C)c(=O)c4n3)C[C@@H](C)O2)ccn1 (single isomer, unassigned) [Example 9B] :: 75 to 110%
2. COc1cc([C@@H]2CN(c3nc(-c4ccc(F)cc4F)c4nc(C(F)(F)F)n(C)c(=O)c4n3)CCO2)ccn1 (single isomer, unassigned) [Example 12B] :: 75 to 110%
3. C[C@H]1CN(c2nc(-c3ccc(C#N)cc3F)c3nc(C(F)(F)F)n(C)c(=O)c3n2)C[C@@H](c2cnn(C3CC3)c2)O1 (single isomer, unassigned) [Example 5B] :: > 110%

Note to self: Emax recorded for C[C@H]1CN(c2nc(-c3ccc(C#N)cc3)c3nc(C(F)(F)F)n(C)c(=O)c3n2)C[C@@H](c2cnn(C3CC3)c2)O1 (single isomer, unassigned) [Example 11B] was 75 to 110%
